Attribution: ChEMBL document CHEMBL3352101

experiment_notes: Cytotoxicity against human Li23 cells by WST assay
recorded_metric: CC50 (µM)
Expressed in µM, but write only the number.

Use the examples below as a reference point.
smiles_entry: CN(C(=O)c1ccccc1)c1ccc(C(O)(C(F)(F)F)C(F)(F)F)cc1
test_value: 65
//
smiles_entry: CCN(C(=O)c1ccccc1)c1ccc(C(O)(C(F)(F)F)C(F)(F)F)cc1
test_value: 19

Entry under test: "Cc1ccccc1S(=O)(=O)N(C)c1ccc(C(O)(C(F)(F)F)C(F)(F)F)cc1" . Its CC50 was 12

----------
experiment_notes: Cytotoxicity against human Li23 cells by WST assay
recorded_metric: CC50

Completed entries (count: 2):
smiles_entry: CN(C(=O)c1ccccc1)c1ccccc1C(O)(C(F)(F)F)C(F)(F)F
test_value: > 20 µM
//
smiles_entry: CN(C(=O)Nc1ccccc1)c1ccc(C(O)(C(F)(F)F)C(F)(F)F)cc1
test_value: > 20 µM

Here is the next item to consider.
The value of CC50 measured for the molecule "CCCC(=O)N(C)c1ccc(C(O)(C(F)(F)F)C(F)(F)F)cc1" turned out to be > 100 µM
